Target: BTK (Homo sapiens)
Construct: purchased Signalchem B10-10H
Sequence (Q06187 whole entry): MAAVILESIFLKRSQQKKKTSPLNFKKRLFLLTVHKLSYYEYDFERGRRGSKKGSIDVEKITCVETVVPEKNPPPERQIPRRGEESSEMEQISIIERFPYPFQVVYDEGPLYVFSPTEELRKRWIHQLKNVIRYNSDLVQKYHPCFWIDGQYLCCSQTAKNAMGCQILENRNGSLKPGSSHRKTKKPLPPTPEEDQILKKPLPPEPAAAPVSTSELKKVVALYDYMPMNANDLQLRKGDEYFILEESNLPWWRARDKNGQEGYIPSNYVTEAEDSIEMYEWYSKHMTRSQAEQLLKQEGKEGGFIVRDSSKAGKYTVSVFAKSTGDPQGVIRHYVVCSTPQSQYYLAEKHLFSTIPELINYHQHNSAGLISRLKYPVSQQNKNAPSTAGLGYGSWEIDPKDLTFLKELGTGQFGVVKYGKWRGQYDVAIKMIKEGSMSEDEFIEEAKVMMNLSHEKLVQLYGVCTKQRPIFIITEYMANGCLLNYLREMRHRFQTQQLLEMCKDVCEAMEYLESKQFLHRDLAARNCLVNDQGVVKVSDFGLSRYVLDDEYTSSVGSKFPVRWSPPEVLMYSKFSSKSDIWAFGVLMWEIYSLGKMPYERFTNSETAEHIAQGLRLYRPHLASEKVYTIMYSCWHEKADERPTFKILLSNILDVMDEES
Assay: Inhibitory activity against BTK, ADP-Glo Kinase system (Promega)
Format: biochemical
Details: 1mM ATP; read-out: BTK IC50(nM) 1mM ATP
Attribute Measured: IC50

Here are 5 molecules together with their reported answers.
C=CC(=O)N1C[C@@H](Oc2nc(Nc3ncc(C)s3)cc3c2ccn3CC(F)(F)F)C[C@H]1C
≤ 20 nM
C=CC(=O)N1CC[C@@H](Oc2nc(Nc3ncc(C)s3)cc3c2ccn3C2CCCC2)C1
> 500 nM
C=CC(=O)N1C[C@H](F)[C@H](Oc2nc(Nc3cc(C)[nH]n3)cc3c2ccn3CC(C)C)C1
20 to 100 nM
C=CC(=O)N1CC=C(c2nc(Nc3ncc(C)s3)cc3c2ccn3CC(F)(F)F)CC1
20 to 100 nM
C=CC(=O)N1CC(Oc2nc(Nc3ncc(C)s3)cc3c2ccn3C(C)C)C1
≤ 20 nM

Given the molecule `C=CC(=O)N1C[C@@H](OC)C[C@@H]1COc1nc(Nc2ncc(C)s2)cc2c1ccn2C(C)C` , write its reported IC50.
≤ 20 nM

Given the molecule `C=CC(=O)Nc1cc(-c2nc(Nc3ncc(C)s3)cc3c2ccn3C(C)C)c(F)cc1F` , write its reported IC50.
≤ 20 nM

Given the molecule C=CC(=O)N1C2C=C(c3nc(Nc4ncc(C)s4)cc4c3ccn4CC(F)F)CC1CC2 (centres unmarked) , write its reported IC50.
≤ 20 nM

====

Target: ITK (Homo sapiens)
Construct: purchased Signalchem I13-11G-10
Assay: Inhibitory activity against ITK, ADP-Glo Kinase system (Promega)
Assay type: biochemical
Conditions: 1mM ATP; read-out: ITK IC50(nM) 1mM ATP
Attribute Measured: IC50

Here are 2 compounds together with their reported answers.
C=CC(=O)N1C[C@@H](Oc2nc(Nc3ncc(C)s3)cc3c2ccn3C)C[C@@H]1C [Example 185]
≤ 20 nM
C=CC(=O)Nc1ccc(F)c(-c2nc(Nc3ncc(C)s3)cc3c2ccn3C2CCCC2)c1 [Example 70]
20 to 100 nM

Please turn your attention to the following entry.
Given the compound C=CC(=O)N1CC=C(c2nc(Nc3cc(C)ccn3)cc3c2ccn3C(C)C)CC1 [Example 49] , write its reported IC50.
100 to 500 nM

====

Overview of reported IC50 across a group of molecules:
Target: ITK (Homo sapiens, UniProt Q08881)
Construct: purchased Signalchem I13-11G-10
Sequence (Q08881 whole entry): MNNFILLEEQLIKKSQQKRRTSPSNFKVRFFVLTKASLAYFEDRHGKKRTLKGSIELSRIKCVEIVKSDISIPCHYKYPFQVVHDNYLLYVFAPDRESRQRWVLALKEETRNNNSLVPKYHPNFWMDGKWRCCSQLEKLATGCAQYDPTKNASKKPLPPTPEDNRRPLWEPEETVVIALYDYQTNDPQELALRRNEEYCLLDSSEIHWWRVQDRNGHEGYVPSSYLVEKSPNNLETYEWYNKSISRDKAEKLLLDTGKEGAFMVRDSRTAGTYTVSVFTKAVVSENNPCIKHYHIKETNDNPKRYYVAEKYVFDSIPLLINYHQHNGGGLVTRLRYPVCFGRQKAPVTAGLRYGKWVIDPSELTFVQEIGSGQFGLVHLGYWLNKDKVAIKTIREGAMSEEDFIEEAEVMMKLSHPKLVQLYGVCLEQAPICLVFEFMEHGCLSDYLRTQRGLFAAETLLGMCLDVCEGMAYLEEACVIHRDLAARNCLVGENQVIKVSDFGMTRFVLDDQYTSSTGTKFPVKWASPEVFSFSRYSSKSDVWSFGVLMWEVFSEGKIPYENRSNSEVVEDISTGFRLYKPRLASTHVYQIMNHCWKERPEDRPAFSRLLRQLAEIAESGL
Assay: Inhibitory activity against ITK, ADP-Glo Kinase system (Promega)
Assay type: biochemical
Details: 1mM ATP; read-out: ITK IC50(nM) 1mM ATP

Here are 5 molecules together with their reported answers.
C=CC(=O)N1CC(F)(F)C[C@@H]1COc1nc(Nc2ncc(C)s2)cc2c1ccn2C(C)C [Example 93]
≤ 20 nM
C=CC(=O)N1CC=C(c2nc(Nc3cc(OC)ncn3)cc3c2ccn3C(C)C)CC1 [Example 46]
100 to 500 nM
C=CC(=O)N1C2C=C(c3nc(Nc4ncc(C)s4)cc4c3ccn4CC(C)C)CC1CCC2 (stereo not shown) [Example 38]
≤ 20 nM
C=CC(=O)N1C[C@H](F)[C@H](Oc2nc(Nc3ncc(C)s3)cc3c2ccn3CC2CC2)C1 [Example 107]
≤ 20 nM
C=CC(=O)N1C2C=C(c3nc(Nc4ncc(C)s4)cc4c3ccn4C(C)C)CC1CCC2 (stereo not shown) [Example 37]
≤ 20 nM

Give IC50 for this entry on ITK (Homo sapiens, UniProt Q08881): C=CC(=O)N1CC=C(c2nc(Nc3ncc(C)s3)cc3c2ccn3C(C)C)CC1 [Example 2]
20 to 100 nM

Give IC50 for this entry on ITK (Homo sapiens, UniProt Q08881): C=CC(=O)N1C[C@@H](C)[C@H](Oc2nc(Nc3ncc(C)s3)cc3c2ccn3C(C)C)C1 (racemic) [Example 92]
≤ 20 nM

Give IC50 for this entry on ITK (Homo sapiens, UniProt Q08881): C=CC(=O)Nc1ccc(F)c(-c2nc(Nc3ncc(C)s3)cc3c2ccn3CC(F)(F)F)c1 [Example 78]
20 to 100 nM

Give IC50 for this entry on ITK (Homo sapiens, UniProt Q08881): C=CC(=O)N1C[C@@H](F)[C@H](Oc2nc(Nc3ncc(C)s3)cc3c2ccn3CC2CC2)C1 [Example 108]
≤ 20 nM

Give IC50 for this entry on ITK (Homo sapiens, UniProt Q08881): C=C(F)C(=O)N1CC[C@H](Oc2nc(Nc3ncc(C)s3)cc3c2ccn3CC(C)C)C1 [Example 224]
> 500 nM

Give IC50 for this entry on ITK (Homo sapiens, UniProt Q08881): C=CC(=O)N1CC[C@@H]1COc1nc(Nc2ncc(C)s2)cc2c1ccn2C(C)C [Example 90]
≤ 20 nM

Give IC50 for this entry on ITK (Homo sapiens, UniProt Q08881): C=CC(=O)N1C[C@@H](Oc2nc(Nc3ncc(C)s3)cc3c2ccn3CCC)C[C@@H]1C [Example 187]
≤ 20 nM

Give IC50 for this entry on ITK (Homo sapiens, UniProt Q08881): C=CC(=O)N1C2C=C(c3nc(Nc4ncc(C)s4)cc4c3ccn4C)CC1CCC2 (stereo not shown) [Example 36]
≤ 20 nM

Give IC50 for this entry on ITK (Homo sapiens, UniProt Q08881): C=CC(=O)N1CC[C@H](Oc2nc(Nc3ncc(C)s3)cc3c2ccn3CC2(C(F)(F)F)CC2)C1 (stereo in doubt) [Example 102]
≤ 20 nM

Give IC50 for this entry on ITK (Homo sapiens, UniProt Q08881): C=CC(=O)N1CC[C@H](Oc2nc(Nc3ccn(C)n3)cc3c2ccn3C(C)C)C1 [Example 193]
> 500 nM

Give IC50 for this entry on ITK (Homo sapiens, UniProt Q08881): C=CC(=O)N1CC[C@H](Oc2nc(Nc3ncc(C)s3)cc3c2ccn3[C@@H](C)CC)C1 [Example 111]
≤ 20 nM

meta.source: patent EP4707277A1
